- assayTarget: UniProtKB P21396
- Sequence (P21396 1-526): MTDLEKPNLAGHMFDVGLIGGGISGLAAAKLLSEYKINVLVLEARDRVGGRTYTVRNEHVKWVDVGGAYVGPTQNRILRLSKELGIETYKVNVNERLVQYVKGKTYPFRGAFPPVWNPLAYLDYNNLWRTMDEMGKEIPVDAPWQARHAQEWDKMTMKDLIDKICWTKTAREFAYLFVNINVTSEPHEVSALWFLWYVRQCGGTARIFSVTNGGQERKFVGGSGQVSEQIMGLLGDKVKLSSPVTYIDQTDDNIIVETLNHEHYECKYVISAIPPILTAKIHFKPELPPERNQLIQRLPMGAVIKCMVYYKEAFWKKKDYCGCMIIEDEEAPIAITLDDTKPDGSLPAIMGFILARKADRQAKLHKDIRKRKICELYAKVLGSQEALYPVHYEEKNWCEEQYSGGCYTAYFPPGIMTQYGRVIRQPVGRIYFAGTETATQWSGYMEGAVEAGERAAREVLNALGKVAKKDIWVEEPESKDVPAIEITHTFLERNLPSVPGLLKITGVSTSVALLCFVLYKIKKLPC
measuredMetric: IC50 (nM)
Just the number please, in nM, no unit attached.

Input line: I'd like to know its IC50. The compound in question is "O=S1(=O)c2ccc(F)cc2Oc2cc(OCC(F)(F)F)ccc21"
Output line: 0.09

* * *

- assayText: Phase 1 single dose escalation pharmacokinetics
- experimentalSetup: male, human, plasma, po, 15 mg
measuredMetric: Vd/F (L/kg)
Just the number please, in L/kg, no unit attached.

Input line: I'd like to know its Vd/F. The molecule in question is "O=S1(=O)c2ccc(F)cc2Oc2cc(OCC(F)(F)F)ccc21"
Output line: 33.7

* * *

- assayText: Plasma and brain CX157 concentrations after oral dosing in rats
- experimentalSetup: male, Sprague-Dawley, rat, brain and plasma, po, 10 mg/kg, mean brain/plasma ratio of CX157 concentrations, 10 mg/kg oral, 2 h
measuredMetric: Kp at 2 h
Please respond with just the number, no unit label.

Input line: I'd like to know its Kp at 2 h. The compound in question is O=S1(=O)c2ccc(F)cc2Oc2cc(OCC(F)(F)F)ccc21 [CX157]
Output line: 3.1

* * *

- assayText: Phase 1 single dose escalation pharmacokinetics
- experimentalSetup: male, human, plasma, po, 20 mg
measuredMetric: concentration at 24 h (ng/mL)
Just the number please, in ng/mL, no unit attached.

Input line: I'd like to know its concentration at 24 h. The compound in question is "O=S1(=O)c2ccc(F)cc2Oc2cc(OCC(F)(F)F)ccc21"
Output line: 0.74

* * *

- assayText: Phase 1 single dose escalation pharmacokinetics
- experimentalSetup: male, human, plasma, po, 15 mg
measuredMetric: concentration at 24 h (ng/mL)
Just the number please, in ng/mL, no unit attached.

Input line: I'd like to know its concentration at 24 h. The compound in question is O=S1(=O)c2ccc(F)cc2Oc2cc(OCC(F)(F)F)ccc21 [CX157]
Output line: 1

* * *

- assayText: Plasma and brain CX157 concentrations after oral dosing in rats
- experimentalSetup: male, Sprague-Dawley, rat, brain, po, 1 mg/kg
measuredMetric: concentration at 4 h (ng/mL)
Just the number please, in ng/mL, no unit attached.

Input line: I'd like to know its concentration at 4 h. The molecule in question is "O=S1(=O)c2ccc(F)cc2Oc2cc(OCC(F)(F)F)ccc21"
Output line: 71.7

* * *

- assayText: Phase I 14-day twice-daily pharmacokinetics
- experimentalSetup: human, plasma, oral, 20 mg
measuredMetric: AUC(0-inf)
Answer format: number, then unit.

Input line: I'd like to know its AUC(0-inf). The compound in question is O=S1(=O)c2ccc(F)cc2Oc2cc(OCC(F)(F)F)ccc21 [CX157]
Output line: 433 ng·h/mL

* * *

- assayText: Phase 1 single dose escalation pharmacokinetics
- experimentalSetup: male, human, plasma, po, 80 mg, AUClast, healthy males, single oral 80 mg, mean
measuredMetric: AUC(0-t) (µg·h/mL)
Just the number please, in µg·h/mL, no unit attached.

Input line: I'd like to know its AUC(0-t). The molecule in question is "O=S1(=O)c2ccc(F)cc2Oc2cc(OCC(F)(F)F)ccc21"
Output line: 0.73

* * *

- assayText: Phase 1 single dose escalation pharmacokinetics
- experimentalSetup: male, human, plasma, po, 40 mg
measuredMetric: half-life (h)
Just the number please, in h, no unit attached.

Input line: I'd like to know its half-life. The compound in question is "O=S1(=O)c2ccc(F)cc2Oc2cc(OCC(F)(F)F)ccc21"
Output line: 15.6

* * *

- assayText: Phase 1 single dose escalation pharmacokinetics
- experimentalSetup: male, human, plasma, po, 80 mg
measuredMetric: AUC(0-inf) (ng·h/mL)
Just the number please, in ng·h/mL, no unit attached.

Input line: I'd like to know its AUC(0-inf). The molecule in question is "O=S1(=O)c2ccc(F)cc2Oc2cc(OCC(F)(F)F)ccc21"
Output line: 772

* * *

- assayTarget: rat liver MAO-A (Rattus norvegicus)
- Sequence (P21396 1-526): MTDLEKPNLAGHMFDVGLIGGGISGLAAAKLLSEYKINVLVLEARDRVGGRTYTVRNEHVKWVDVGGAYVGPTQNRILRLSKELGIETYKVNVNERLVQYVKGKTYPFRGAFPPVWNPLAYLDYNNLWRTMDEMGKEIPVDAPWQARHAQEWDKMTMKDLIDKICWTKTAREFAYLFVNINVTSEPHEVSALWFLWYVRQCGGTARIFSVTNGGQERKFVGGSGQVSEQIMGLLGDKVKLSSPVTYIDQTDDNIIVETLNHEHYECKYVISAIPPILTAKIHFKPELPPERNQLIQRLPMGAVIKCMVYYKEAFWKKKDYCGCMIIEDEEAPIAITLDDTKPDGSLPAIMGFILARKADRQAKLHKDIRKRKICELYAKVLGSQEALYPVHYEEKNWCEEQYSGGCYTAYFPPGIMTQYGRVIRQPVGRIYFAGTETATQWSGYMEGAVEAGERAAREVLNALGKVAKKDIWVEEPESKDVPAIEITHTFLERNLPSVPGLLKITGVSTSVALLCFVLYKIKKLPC
measuredMetric: pKi
Give only the number. pKi is defined as minus log10 of concentration in molar units.

Input line: I'd like to know its pKi. The molecule in question is "O=S1(=O)c2ccc(F)cc2Oc2cc(OCC(F)(F)F)ccc21"
Output line: 9.04

* * *

- assayText: Plasma and brain CX157 concentrations after oral dosing in rats
- experimentalSetup: male, Sprague-Dawley, rat, brain, po, 5 mg/kg
measuredMetric: concentration at 8 h

Input line: I'd like to know its concentration at 8 h. The compound in question is "O=S1(=O)c2ccc(F)cc2Oc2cc(OCC(F)(F)F)ccc21"
Output line: 535 ng/mL

* * *

- assayTarget: rat liver MAO-A (Rattus norvegicus, UniProt P21396)
- Sequence (P21396 1-526): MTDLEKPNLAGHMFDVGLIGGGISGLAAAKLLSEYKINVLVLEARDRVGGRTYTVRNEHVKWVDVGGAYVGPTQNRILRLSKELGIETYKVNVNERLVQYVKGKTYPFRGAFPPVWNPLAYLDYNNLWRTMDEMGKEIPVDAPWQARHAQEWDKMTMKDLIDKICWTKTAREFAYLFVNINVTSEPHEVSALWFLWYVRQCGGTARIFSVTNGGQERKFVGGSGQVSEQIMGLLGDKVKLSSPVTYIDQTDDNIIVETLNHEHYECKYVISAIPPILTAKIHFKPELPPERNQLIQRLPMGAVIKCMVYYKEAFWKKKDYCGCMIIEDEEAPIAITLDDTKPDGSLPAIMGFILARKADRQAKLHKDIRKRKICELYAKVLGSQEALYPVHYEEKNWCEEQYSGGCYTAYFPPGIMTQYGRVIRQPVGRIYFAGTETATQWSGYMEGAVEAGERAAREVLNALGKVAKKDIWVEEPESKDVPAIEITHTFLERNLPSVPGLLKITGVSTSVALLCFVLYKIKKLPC
measuredMetric: IC50 (nM)
Just the number please, in nM, no unit attached.

Input line: I'd like to know its IC50. The molecule in question is "O=S1(=O)c2ccc(F)cc2Oc2cc(OCC(F)(F)F)ccc21"
Output line: 2.22

* * *

- assayText: Phase 1 single dose escalation pharmacokinetics
- experimentalSetup: male, human, plasma, po, 20 mg, AUC0-24, healthy males, single oral 20 mg, mean
measuredMetric: AUC(0-t) (ng·h/mL)
Just the number please, in ng·h/mL, no unit attached.

Input line: I'd like to know its AUC(0-t). The molecule in question is "O=S1(=O)c2ccc(F)cc2Oc2cc(OCC(F)(F)F)ccc21"
Output line: 139

* * *

- assayText: Phase I 14-day twice-daily pharmacokinetics
- experimentalSetup: human, plasma, oral, 20 mg, Cmax, healthy volunteers, 20 mg twice daily, Day 1, mean
measuredMetric: Cmax
Answer format: number, then unit.

Input line: I'd like to know its Cmax. The molecule in question is "O=S1(=O)c2ccc(F)cc2Oc2cc(OCC(F)(F)F)ccc21"
Output line: 32.3 ng/mL
